B1: r16_88_TrROS_Hall (parent)
chain: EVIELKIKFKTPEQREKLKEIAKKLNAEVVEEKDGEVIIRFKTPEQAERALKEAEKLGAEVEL

# Variants of: B1
# TEST METHOD NOTES: folding stability dG (cDNA display proteolysis); higher = more stable
# ASSAY CONDITIONS: PBS, room temperature
ENDPOINT LABEL: folding stability dG (kcal/mol)
One number for each entry, in kcal/mol.

Reference set (4 entries):
EVIELKIKFKTPEQREKLKEIAKKLNAEVVEEKDGEVIIRFKTPEQAERALKEAEKLGAEVTL :: 4.4
EVIELKIKFKTPEQREKLKEIAKDLNAEVVEEKDGEVIIRFKTPEQAERALKEAEKLGAEVEL :: 4.39
EVIELKIKFKTPEQREKLKEIHKKLNAEVVEEKDGEVIIRFKTPEQAERALKEAEKLGAEVEL :: 4.21
EVIELKIKFKTPEQREKLKEIAKKLNAEVVEEKDGEVIIRFKTPEQAERALKEAEKLGAEEEL :: 4.3

List reported folding stability dG for each of these variants:
1. EVIELKIKFKTPEQREKLKEIAKKLNAEVVEEKDGEKIIRFKTPEQAERALKEAEKLGAEVEL
2. EVIELKIKFKTPEQREKLKEIAKKLNAEVVEEKDGEVIIRFKTPEQAERALKEAEKVGAEVEL
3. EVIELKIKFKTNEQREKLKEIAKKLNAEVVEEKDGEVIIRFKTPEQAERALKEAEKLGAEVEL
4. EVIELKIKFKTPHQREKLKEIAKKLNAEVVEEKDGEVIIRFKTPEQAERALKEAEKLGAEVEL

output:
1. 3.31
2. 4.5
3. 4.23
4. 4.41

List reported folding stability dG for each of these variants:
1. EVIELKIKFKTPEQREKLKEIACKLNAEVVEEKDGEVIIRFKTPEQAERALKEAEKLGAEVEL
2. EVIELKIKFKTPEQREKLKEIAKKLNAEVVEEKDGEVIIRFKTPEQAERALKEAEKLDAEVEL
3. EVIELKIKFKTPEQREKLKEIAKKLNAEVVEEKDGEVIIRFKTPEQAERALKEAEKLNAEVEL

output:
1. 4.61
2. 4.42
3. 4.25

List reported folding stability dG for each of these variants:
1. EVIELKIKFKTPEQREKLKEEAKKLNAEVVEEKDGEVIIRFKTPEQAERALKEAEKLGAEVEL
2. EVIELKIKFKTPEIREKLKEIAKKLNAEVVEEKDGEVIIRFKTPEQAERALKEAEKLGAEVEL

output:
1. 4
2. 4.1

List reported folding stability dG for each of these variants:
1. EVIELKIKFKTPEQREKLKEIAKKLNAEVVEEKDGEVIIRFKTPEYAERALKEAEKLGAEVEL
2. EVIELKIKFKTPEQREKLKEIAKKLNAEVVIEKDGEVIIRFKTPEQAERALKEAEKLGAEVEL
3. EVIELKIKFKTPEQREKLKEIAKKLNAEVVEEKDGEVIIRFKTPEQAERALKRAEKLGAEVEL
4. EVIELKIKFKQPEQREKLKEIAKKLNAEVVEEKDGEVIIRFKTPEQAERALKEAEKLGAEVEL
5. EVIELKIKFKTPEQREKLKEIAKKLNAEVVEEMDGEVIIRFKTPEQAERALKEAEKLGAEVEL
6. EVIELKIKFKTPEQREKLKEIAKKLNAEVVEEKDGEVIITFKTPEQAERALKEAEKLGAEVEL
7. EVIELKIKFKTPEQREKLKEIAKKLNAEVVEEKDGEVIIRFKTPEQAERALKEAESLGAEVEL
8. EVIELKIKFKTPEQREKLKEIAKKLNAEVVEEKDFEVIIRFKTPEQAERALKEAEKLGAEVEL

output:
1: 4.17; 2: 4.45; 3: 4.03; 4: 4.33; 5: 4.39; 6: 4.79; 7: 4.51; 8: 4.24
